Molecular target: T1, mouse PD-L2 (full-length, on cells) (mouse, UniProt Q9WUL5 20-247)
T1 construct: whole, on cells; HEK293 cells stably expressing full-length mouse PD-L2
T1 sequence (looked up): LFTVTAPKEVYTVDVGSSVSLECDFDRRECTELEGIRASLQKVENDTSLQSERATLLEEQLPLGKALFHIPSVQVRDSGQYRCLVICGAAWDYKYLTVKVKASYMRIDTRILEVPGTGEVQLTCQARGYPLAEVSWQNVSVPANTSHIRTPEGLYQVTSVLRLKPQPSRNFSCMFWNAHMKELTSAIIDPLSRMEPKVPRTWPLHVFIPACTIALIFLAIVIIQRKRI
Test: FACS on HEK293T cells expressing mouse PD-L2

- Binder: "19B3-B3 M23K.M63L.HC (antibody, V domains shown, Optimized variant of 19B3-B3) VH: QVQLVQSGAEVKKPGASVKVSCKASGYTFTNYAIHWVRQAPGQRLEWMGWINTGLGKPKYSQLFQDRVTITRDTSASTASMELSGLRSDDTAVYYCARVGWELYFDYWGQGTLVTVSS VL: DIQMTQSPSTLSASVGDRVTITCRASQSISSLLAWYQQKPGKAPKLLIYKASSLESGVPSRFSGSGSGTEFTLTISSLQPDDFATYFCQQYNSYWTFGQGTKVEIK"
  binding result: "no binding"
- Binder: "10D1-G1 N31Q.N92Q.LC (antibody, V domains shown, Optimized variant of 10D1-G1; also called 10D1-G1 N31Q.N920.LC) VH: QVQLQESGPGLVKPSGTLSLTCAVSGGSISSSYWWSWVRQPPGKGLEWIGEIFHIGSTNYNPSLRSRVTISVVKSKNQFSLNLNSVTAADTAVYFCARVSGGYGYFSGMDVWGQGTTVTVSS VL: DIQMTQSPSSLSASVGDRVTITCRASQGIRQDLGWYQQKPGKAPKRLIYGASSLQSGVPSRFSGSGSGTEFTLTISSLQPEDFATYYCLQHQSYPRTFGQGTKVEIK"
  binding result: "no binding"
- Binder: "19B3-B3 N92Y.LC.M23K.M63L.HC (antibody, V domains shown, Optimized variant of 19B3-B3) VH: QVQLVQSGAEVKKPGASVKVSCKASGYTFTNYAIHWVRQAPGQRLEWMGWINTGLGKPKYSQLFQDRVTITRDTSASTASMELSGLRSDDTAVYYCARVGWELYFDYWGQGTLVTVSS VL: DIQMTQSPSTLSASVGDRVTITCRASQSISSLLAWYQQKPGKAPKLLIYKASSLESGVPSRFSGSGSGTEFTLTISSLQPDDFATYFCQQYYSYWTFGQGTKVEIK"
  binding result: "no binding"

Origin of the recorded values: patent US20200369772A1
